All values here come from the RNAGym collection of RNA variant scans (doi:10.7554/elife.80360).

B1: HDV Ribozyme (parent)
chain: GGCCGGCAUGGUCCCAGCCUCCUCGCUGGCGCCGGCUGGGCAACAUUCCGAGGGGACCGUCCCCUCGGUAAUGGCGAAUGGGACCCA

Variants of: B1
assay-overview: self-cleavage, relative activity (ratio to wild type); higher = more cleavage; co-transcriptional
Given measured self-cleavage, output Fulfilled if it is greater than or equal to 0.5 and Not fulfilled if not.

Example cases with answers are listed next.
> print(dat)
    variant.notation            cat
 1         C15G C21U  Not fulfilled
 2         G34A C61A  Not fulfilled
 3          G5U C49A  Not fulfilled
 4          G1C C36G  Not fulfilled
 5         C57G U65G      Fulfilled
 6         U47A G52C      Fulfilled
 7         A16U A78G  Not fulfilled
 8         C49A G82A  Not fulfilled
 9         U23C C24G  Not fulfilled
10         C49G A51G      Fulfilled

Check this variant for self-cleavage at or above 0.5: C3G G55C
Fulfilled

Check this variant for self-cleavage at or above 0.5: G5U C61A
Not fulfilled

Check this variant for self-cleavage at or above 0.5: A8G G76A
Fulfilled

Check this variant for self-cleavage at or above 0.5: C24A G81A
Not fulfilled

Check this variant for self-cleavage at or above 0.5: A8U C61U
Fulfilled

Check this variant for self-cleavage at or above 0.5: G6U G31U
Not fulfilled

Check this variant for self-cleavage at or above 0.5: C4U G40U
Not fulfilled

Check this variant for self-cleavage at or above 0.5: G1U A83U
Not fulfilled
